- Test System: 4-HPPD (Rattus norvegicus, UniProt P32755)
- Construct: from tissue; host or cells: liver cytosol of a male Wistar rat
- Sequence (P32755 whole entry): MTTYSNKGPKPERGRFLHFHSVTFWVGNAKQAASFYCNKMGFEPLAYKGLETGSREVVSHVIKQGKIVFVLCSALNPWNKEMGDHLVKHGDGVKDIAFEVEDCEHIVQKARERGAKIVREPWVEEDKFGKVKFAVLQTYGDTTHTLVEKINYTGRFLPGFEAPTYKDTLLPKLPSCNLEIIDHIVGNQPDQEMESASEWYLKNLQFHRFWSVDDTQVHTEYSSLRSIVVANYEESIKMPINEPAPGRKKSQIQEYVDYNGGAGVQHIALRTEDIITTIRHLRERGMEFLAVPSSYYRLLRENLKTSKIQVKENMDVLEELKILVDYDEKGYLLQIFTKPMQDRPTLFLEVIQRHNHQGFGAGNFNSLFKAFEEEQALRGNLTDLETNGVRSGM
- Test Details: Determination of 4-HPPD activity by oxygen consumption (SDR SensorDish Reader) in rat liver cytosol
- Assay type: biochemical, male Wistar rat
- Details: rat liver cytosol; read-out: IC50
pIC50: −log10 of the molar value.
Value Kind: pIC50

>  <Compound>
CC1(C)CC(=O)C(C(=O)c2ccc([N+](=O)[O-])cc2Cl)C(=O)C1 [Compound 6]

>  <Reported Result>
~7.44

$$$$

###

- Test Details: in vitro
- Format: cell-based
- Details: after 144 h of treatment, concentration 1 mM; read-out: viability of HFb
Value Kind: viability at 144 h, 1 mM

>  <Compound>
CC1(C)CC(=O)C(C(=O)c2ccc([N+](=O)[O-])cc2Cl)C(=O)C1 [Compound 6]

>  <Value Kind>
viability at 144 h, 1 mM

>  <Reported Result>
~75%

$$$$

###

- Tested on: primary human fibroblasts (HFb)
- Test Details: in vitro
- Format: cell-based
- Details: human, 24 h
Each entry below carries its recorded LD50 24 hours.
Value Kind: LD50 24 hours

>  <Compound>
COC(=O)C1C(=O)C(C(=O)c2ccc([N+](=O)[O-])cc2)C(=O)CC1(C)C (stereo not drawn)

>  <Test System>
primary human fibroblasts (HFb)

>  <Reported Result>
0.63 ± 0.12 mM

$$$$
>  <Compound>
CC1(C)CC(=O)C(C(=O)c2ccccc2)C(=O)C1

>  <Test System>
primary human fibroblasts (HFb)

>  <Reported Result>
>1 mM [c]

$$$$
>  <Compound>
O=C1CCCC(=O)C1C(=O)c1ccc(C(F)(F)F)cc1[N+](=O)[O-] [Compound 1, reference compound]

>  <Test System>
primary human fibroblasts (HFb)

>  <Reported Result>
>1 mM [c]

$$$$
>  <Compound>
Cc1cc(C2C(=O)C(C(=O)c3ccc(Cl)cc3)C(=O)CC2(C)C)on1 (stereo not drawn)

>  <Test System>
primary human fibroblasts (HFb)

>  <Reported Result>
>1 mM [c]

$$$$
>  <Compound>
CC1(C)C(Cl)C(=O)C(C(=O)c2ccccc2)C(=O)C1Cl (stereo not drawn)

>  <Test System>
primary human fibroblasts (HFb)

>  <Reported Result>
>1 mM [c]

$$$$
>  <Compound>
CC1(C)CC(=O)C(C(=O)c2ccc([N+](=O)[O-])cc2Cl)C(=O)C1

>  <Test System>
primary human fibroblasts (HFb)

>  <Reported Result>
>1 mM [c]

$$$$
>  <Compound>
CS(=O)(=O)c1ccc(C(=O)C2C(=O)C(O)CC(O)C2=O)c(Cl)c1COCC(F)(F)F (stereo not drawn)

>  <Test System>
primary human fibroblasts (HFb)

>  <Reported Result>
0.48 ± 0.04 mM

$$$$
>  <Compound>
O=C1CCC(c2ccccc2)C(=O)C1C(=O)c1ccc(Cl)cc1Cl (stereo not drawn)

>  <Test System>
primary human fibroblasts (HFb)

>  <Reported Result>
>1 mM [c]

$$$$
>  <Compound>
CC1(C)CC(=O)C(C(=O)c2ccccc2)C(=O)C1Cl (stereo not drawn)

>  <Test System>
primary human fibroblasts (HFb)

>  <Reported Result>
>1 mM [c]

$$$$

###

- Test system: primary human fibroblasts (HFb)
- Test Details: in vitro
- Assay type: cell-based
- Details: human, 144 h
Value Kind: LD50 144 hours

>  <Molecule>
O=C1CCCC(=O)C1C(=O)c1ccc(C(F)(F)F)cc1[N+](=O)[O-] [Compound 1, reference compound]

>  <Reported Result>
~1 mM

$$$$
>  <Molecule>
CC1(C)CC(=O)C(C(=O)c2ccccc2)C(=O)C1Cl (stereo not shown) [Compound 8]

>  <Reported Result>
>1 mM [c]

$$$$
>  <Molecule>
CS(=O)(=O)c1ccc(C(=O)C2C(=O)C(O)CC(O)C2=O)c(Cl)c1COCC(F)(F)F (stereo not shown) [Compound 2]

>  <Reported Result>
0.48 ± 0.03 mM

$$$$
>  <Molecule>
CC1(C)CC(=O)C(C(=O)c2ccccc2)C(=O)C1 [Compound 9]

>  <Reported Result>
>1 mM [c]

$$$$

###

- Test system: primary human fibroblasts (HFb)
- Test Details: in vitro
- Format: cell-based
- Details: human, 144 h
Value Kind: LD50 144 hours (mM)

>  <Compound>
Cc1cc(C2C(=O)C(C(=O)c3ccc(Cl)cc3)C(=O)CC2(C)C)on1 (centres unmarked) [Compound 10]

>  <Reported Result>
0.82

$$$$
>  <Compound>
O=C1CCC(c2ccccc2)C(=O)C1C(=O)c1ccc(Cl)cc1Cl (centres unmarked) [Compound 13]

>  <Reported Result>
0.36

$$$$
>  <Compound>
CC1(C)C(Cl)C(=O)C(C(=O)c2ccccc2)C(=O)C1Cl (centres unmarked) [Compound 11]

>  <Reported Result>
0.29

$$$$

###

- System: primary human fibroblasts (HFb)
- Test Details: in vitro
- Format: cell-based
- Details: HFb, MTT, 24 hours treatment
Value Kind: LD50 24 hours

>  <Entry Smiles>
CC1(C)CC(=O)C(C(=O)c2ccc(C(F)(F)F)cc2[N+](=O)[O-])C(=O)C1

>  <Reported Result>
> 10 µM

$$$$
>  <Entry Smiles>
CS(=O)(=O)c1cc(C(F)(F)F)ccc1C(=O)c1cnoc1C1CC1

>  <Reported Result>
>1 mM [c]

$$$$
>  <Entry Smiles>
CS(=O)(=O)c1ccc(C(=O)C2C(=O)CCCC2=O)c(Cl)c1COCC(F)(F)F

>  <Reported Result>
>1 mM [c]

$$$$
>  <Entry Smiles>
CS(=O)(=O)c1ccc(C(=O)C2C(=O)CCCC2=O)c([N+](=O)[O-])c1

>  <Reported Result>
1100 ± 100 µM

$$$$
